Test: Ichthyotoxicity in gold fish assessed as death after 1 hr
Assay type: organism-based
Conditions: carassius auratus, in vivo
Property: LC50 at 1 h (µg/mL)

[[record]]
compound = "C=C(CCNC(=O)CC/C=C/C[C@H](CCCCCCC)OC)[C@@]12O[C@@H]1CC=C(C)C2=O [MALYNGAMIDE H]"
measure_unit = "µg/mL"
assay_value = 5


Attribution: ChEMBL document CHEMBL1159249
